tgt: human EGFRvIII protein on the cell surface (human) (UniProt P00533)
assay method text: FACS on U87MG-EGFRvIII cells
readout type: Maximum mean fluorescence intensity (MFI)
Number only, in MFI; omit the unit.

Humanized antibody h75G7C6-2 (antibody, human IgG1, V domains shown) VH: EVQLVQSGAEVKKPGASVKVSCKASGYTFTDYNMDWVKQAPGQGLEWIGDINPNNADTIYNQKFKGRVTLTVDKSTSTVYMELSSLRSEDTAVYYCARGDYDGYYPVYYAMDYWGQGTTVTVSS VL: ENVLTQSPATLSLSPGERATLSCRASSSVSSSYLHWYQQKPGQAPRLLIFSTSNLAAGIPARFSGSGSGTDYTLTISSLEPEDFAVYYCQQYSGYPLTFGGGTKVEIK; 18300

Please look at the following binder next.
Exercise: Report Maximum mean fluorescence intensity for Humanized antibody h75G7C6-6 (antibody, human IgG1, V domains shown) VH: QVQLVQSGAEVKKPGASVKVSCKASGYTFTDYNMDWVRQAPGQGLEWMGDINPNNADTIYNQKFKGRVTMTRDTSTSTVYMELSSLRSEDTAVYYCARGDYDGYYPVYYAMDYWGQGTTVTVSS VL: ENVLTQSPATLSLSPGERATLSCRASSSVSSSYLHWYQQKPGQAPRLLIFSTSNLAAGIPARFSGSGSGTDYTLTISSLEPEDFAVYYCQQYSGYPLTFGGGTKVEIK
Key: 17100
